# reported corrected association response; entries follow
target: recombinant human OX40 (Acro Biosystems, cat. no. OXO-H5224) (human) (UniProt P43489); experiment: BLI cross-block; competitor (immobilized 1st Ab): IgG1-CD134-11D4
Sequence (P43489 29-216 limits assumed): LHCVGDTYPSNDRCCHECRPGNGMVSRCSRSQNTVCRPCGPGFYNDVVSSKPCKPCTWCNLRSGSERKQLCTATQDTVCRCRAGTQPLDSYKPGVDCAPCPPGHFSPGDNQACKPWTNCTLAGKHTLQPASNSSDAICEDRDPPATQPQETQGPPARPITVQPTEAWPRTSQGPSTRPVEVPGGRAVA

- binder: "IgG1-CD134-RG7888 (antibody, INN chains, looked up, V domains shown, IgG1) VH: EVQLVQSGAEVKKPGASVKVSCKASGYTFTDSYMSWVRQAPGQGLEWIGDMYPDNGDSSYNQKFRERVTITRDTSTSTAYLELSSLRSEDTAVYYCVLAPRWYFSVWGQGTLVTVSS VL: DIQMTQSPSSLSASVGDRVTITCRASQDISNYLNWYQQKPGKAPKLLIYYTSRLRSGVPSRFSGSGSGTDFTLTISSLQPEDFATYYCQQGHTLPPTFGQGTKVEIK"
  corrected association response / nm: 0.11
- binder: "IgG1-CD134-MEDI0562 (antibody, INN chains, looked up, V domains shown, IgG1) VH: QVQLQESGPGLVKPSQTLSLTCAVYGGSFSSGYWNWIRKHPGKGLEYIGYISYNGITYHNPSLKSRITINRDTSKNQYSLQLNSVTPEDTAVYYCARYKYDYDGGHAMDYWGQGTLVTVSS VL: DIQMTQSPSSLSASVGDRVTITCRASQDISNYLNWYQQKPGKAPKLLIYYTSKLHSGVPSRFSGSGSGTDYTLTISSLQPEDFATYYCQQGSALPWTFGQGTKVEIK"
  corrected association response / nm: 0.14
- binder: "IgG1-CD134-GBR830 (antibody, INN chains, looked up, V domains shown, IgG1) VH: QVTLKESGPALVKPTQTLTLTCSFSGFSLSTSGMGVGWIRQPPGKALEWIAHIWWDDDKYYNTALKTRLTISKDTSKNQVVLTMTNMDPVDTATYYCARIDWDGFAYWGQGTLVTVSS VL: EIVLTQSPATLSLSPGERATLSCRASSSVSYMHWYQQKPGQAPRPWIYATSNRATGIPARFSGSGSGTDYTLTISSLEPEDFAVYYCQQWSSNPWTFGQGTKVEIK"
  corrected association response / nm: 0.13
- binder: "IgG1-CD134-ABBV368 (antibody, INN chains, looked up, V domains shown, IgG1) VH: EVQLVESGGGLVQPGGSLRLSCAASGFTFSRYGMSWVRQAPGKGLELVATINSNGGRTYYPDSVKGRFTISRDNAKNSLYLQMNSLRAEDTAVYYCAREGITTAYAMDYWGQGTTVTVSS VL: DIVMTQSPDSLAVSLGERATINCKASQSVDYDGDSYMHWYQQKPGQPPKLLIYAASILESGVPDRFSGSGSGTDFTLTISSLQAEDVAVYYCQQSNEDPRTFGGGTKVEIK"
  corrected association response / nm: 0.13
